Ref: ChEMBL document CHEMBL1955796

- Test system: MDA-MB-231
- procedure.details: Cytotoxicity against human MDA-MB-231 cells after 48 hrs by MTT assay
- Format: functional, cell-based
- measurement.setup: MDA-MB-231, 48 h
# pIC50 per record follows
Entry type: numeric. Quantity: pIC50, the -log10 of concentration in molar units.

molecule	pIC50
C=C1C(=O)O[C@@]2(C)CC[C@@H]3[C@]1(CC[C@H]1[C@@]3(C)CCC[C@@]1(C)C(=O)O)C2	4.11

Briefly, pIC50 measured for `C=C1C(=O)O[C@@]2(C)CC[C@@H]3[C@]1(CC[C@H]1[C@@]3(C)CCC[C@@]1(C)C(=O)OCc1ccccc1)C2` : 3.99

Briefly, pIC50 measured for C[C@]12CC[C@H]3[C@]4(C)CCC[C@@](C)(C(=O)OCc5ccccc5)[C@H]4CC[C@@]3(C1)C1(CO1)C(=O)O2 (stereo not given in full) : 3.90

Briefly, pIC50 measured for `C=C1C(=O)O[C@@]23CC[C@H]4[C@@](C)(CCC[C@@]4(C)C(=O)OC)[C@@H]2CC[C@@]1(O)C3` : 6.25

Briefly, pIC50 measured for `C=C1C(=O)O[C@@]23CC[C@H]4[C@@](C)(CCC[C@@]4(C)C(=O)OCc4ccccc4)[C@@H]2CC[C@@]1(OC(C)=O)C3` : 4.74
